B1: CDC25A (parent)
chain: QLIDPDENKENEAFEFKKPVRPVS

Variants of: B1
assay_protocol: protein stability index of a GFP-peptide fusion (GPS, HEK-293T) (PSI 1-6); higher = more stable;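 further: lentivirally expressed fusions sorted by FACS into six bins by GFP to DsRed ratio, PSI derived from sequencing read proportions per bin multiplied by bin number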
experimental_conditions: c terminus: a fixed tail appended
Overview of reported protein stability index across a group of variants:
quantity_measured: protein stability index

1. R21V: 3.19
2. E15N: 3.13
3. I3E: 4.74
4. V20S: 4
5. P5R: 3.66
6. P22F: 3.69
7. V23E: 4.1
8. P22D: 4.45
9. R21M: 3.81
10. F16H: 4.56
11. D4K: 3.87
12. P19C: 3.6
13. A13L: 3.73
14. P5C: 4.12
15. E12H: 3.21
16. A13P: 4.25
17. D6T: 3.87
18. L2Y: 4.17
19. E12P: 4.17
20. F14Y: 4.12
21. N11T: 4.99
22. E10A: 4.25
